The measurements presented in this section are drawn from the supplement of paper PMC10567573.

B1: RAB40A (parent)
chain: NWLGRPSKVLSLQDLCCRTIVSCT

Variants of: B1
Assay: protein stability index of a GFP-peptide fusion (GPS, HEK-293T) (PSI 1-6); higher = more stable;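 note: lentivirally expressed fusions sorted by FACS into six bins by GFP to DsRed ratio, PSI derived from sequencing read proportions per bin multiplied by bin number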
Conditions: c terminus: a fixed tail appended
measurementType: protein stability index
In your answer, state the number alone without any accompanying words.

Give recorded protein stability index. G4I 2.13

Give recorded protein stability index. C17K 3.26

Give recorded protein stability index. R5Q 2.55

Give recorded protein stability index. C23V 2.21

Give recorded protein stability index. T24K 3.2

Give recorded protein stability index. P6A 1.79

Give recorded protein stability index. K8A 1.98

Give recorded protein stability index. S7T 2.41

Give recorded protein stability index. L10R 2.6

Give recorded protein stability index. C23M 2.33

Give recorded protein stability index. D14M 1.58

Give recorded protein stability index. V9Q 2.2

Give recorded protein stability index. R18P 1.61

Give recorded protein stability index. V9F 1.93

Give recorded protein stability index. N1G 3.03

Give recorded protein stability index. Q13G 2.21

Give recorded protein stability index. C17H 2.88

Give recorded protein stability index. S22Y 1.95

Give recorded protein stability index. R5M 2.85

Give recorded protein stability index. L3G 2.69

Give recorded protein stability index. T19H 2.41

Give recorded protein stability index. K8W 2.33

Give recorded protein stability index. C16H 1.58

Give recorded protein stability index. G4K 2.48

Give recorded protein stability index. R5L 2.06

Give recorded protein stability index. K8Q 1.97

Give recorded protein stability index. L3Y 2.51

Give recorded protein stability index. S7N 1.95

Give recorded protein stability index. Q13T 2.51

Give recorded protein stability index. I20H 2.48

Give recorded protein stability index. T24C 2.07

Give recorded protein stability index. C23P 2.68

Give recorded protein stability index. T24E 2.58

Give recorded protein stability index. C17I 2.54
